Target: T1, MAGE-A1 peptide on HLA-A*02:01 (human)
T1 peptide: KVLEYVIKV
Assay: JKR9 reporter + peptide-loaded T2, 16 h; full-length, on cells
Known EC50 of peptide of a selection of binders
Report only the number, with the unit nM understood.

BINDER | READOUT NUMBER
A1A2-M01-614 (TCR, V domains shown) Valpha: GEDVEQSLFLSVREGDSSVINCTYSDMLSTYLYWYKQEPGAGLQLLTYIFIFQAMKQDQRLTVLLNKKDKHLSLRIADTQTGDSAIYFCAGSGGGTDKLIFGTGTRLQVFP Vbeta: GAVVSQHPSWVICKSGTSVKIECRSLDFEATTMFWYRQFPKQSLMLMATTDYGSKATYEQGVEKDKFLINHASLTLSTLTVTSAHPEDSSFYICSAREPGQGPWEQYFGPGTRLTVT | 29.4

Query A1A2-M01-619 (TCR, V domains shown) Valpha: GEDVEQSLFLSVREGDSSVINCTYTDSSMTYLYWYKQEPGAGLQLLTYIFSFMDMKQDQRLTVLLNKKDKHLSLRIADTQTGDSAIYFCAGSGGGTDKLIFGTGTRLQVFP Vbeta: GAVVSQHPSWVICKSGTSVKIECRSLDFEATTMFWYRQFPKQSLMLMATTDYGSKATYEQGVEKDKFLINHASLTLSTLTVTSAHPEDSSFYICSAREPGQGPYEQYFGPGTRLTVT yields EC50 of peptide of 27.4

Query A1A2-M01-626 (TCR, V domains shown) Valpha: GEDVEQSLFLSVREGDSSVINCTYPDMFSTYLYWYKQEPGAGLQLLTYIFAFMQMKQDQRLTVLLNKKDKHLSLRIADTQTGDSAIYFCAGSGGGTDKLIFGTGTRLQVFP Vbeta: GAVVSQHPSWVICKSGTSVKIECRSLDFPIERMFWYRQFPKQSLMLMATTDYGSKATYEQGVEKDKFLINHASLTLSTLTVTSAHPEDSSFYICSAREPGQGPFEQYFGPGTRLTVT yields EC50 of peptide of 22.6

Query A1A2-M01-616 (TCR, V domains shown) Valpha: GEDVEQSLFLSVREGDSSVINCTYTDSSQTYLYWYKQEPGAGLQLLTYIFAFMQMKQDQRLTVLLNKKDKHLSLRIADTQTGDSAIYFCAGSGGGTDKLIFGTGTRLQVFP Vbeta: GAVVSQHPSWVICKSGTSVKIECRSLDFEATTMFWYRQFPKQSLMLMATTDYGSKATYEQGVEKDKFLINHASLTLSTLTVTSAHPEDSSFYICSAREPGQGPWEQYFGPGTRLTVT yields EC50 of peptide of 32.3

Query A1A2-M01-625 (TCR, V domains shown) Valpha: GEDVEQSLFLSVREGDSSVINCTYTDSSMTYLYWYKQEPGAGLQLLTYIFAFESMKQDQRLTVLLNKKDKHLSLRIADTQTGDSAIYFCAGSGGGTDKLIFGTGTRLQVFP Vbeta: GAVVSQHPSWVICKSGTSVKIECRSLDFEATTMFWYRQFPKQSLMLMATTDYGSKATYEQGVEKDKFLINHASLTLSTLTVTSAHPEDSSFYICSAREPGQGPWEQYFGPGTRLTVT yields EC50 of peptide of 35.1
